# experimentalTarget: human pancreatic chymotrypsin (Homo sapiens)
# Sequence (P17538 19-263): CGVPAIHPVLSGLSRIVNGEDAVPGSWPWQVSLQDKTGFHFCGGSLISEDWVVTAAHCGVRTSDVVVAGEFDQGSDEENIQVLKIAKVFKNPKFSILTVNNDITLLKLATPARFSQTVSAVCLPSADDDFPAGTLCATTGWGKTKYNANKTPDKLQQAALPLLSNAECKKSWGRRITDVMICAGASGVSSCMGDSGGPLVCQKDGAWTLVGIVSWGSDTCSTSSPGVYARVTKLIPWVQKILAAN
measuredMetric: IC50

Inquiry: Notebook entry, human pancreatic chymotrypsin (Homo sapiens) assay: IC50 of C=C[C@@H]1C[C@]1(NC(=O)[C@@H]1C[C@@H](OC(=O)N2Cc3cccc(F)c3C2)CN1C(=O)[C@@H](OC(=O)NC(C)(C)C)C(C)(C)C)C(=O)NS(=O)(=O)C1CC1 = ?
Reply text: > 100 µM

###

# experimentalTarget: porcine pancreatic elastase (PPE) (Sus scrofa)
# Sequence (P00772 27-266): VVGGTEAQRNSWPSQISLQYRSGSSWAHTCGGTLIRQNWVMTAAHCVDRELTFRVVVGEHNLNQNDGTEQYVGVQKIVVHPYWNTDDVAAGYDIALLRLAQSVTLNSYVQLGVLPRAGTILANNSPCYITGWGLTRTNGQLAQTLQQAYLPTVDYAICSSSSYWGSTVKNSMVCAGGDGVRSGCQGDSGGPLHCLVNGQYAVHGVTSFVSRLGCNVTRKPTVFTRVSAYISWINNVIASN
measuredMetric: IC50

Inquiry: Notebook entry, porcine pancreatic elastase (PPE) (Sus scrofa) assay: IC50 of C=C[C@@H]1C[C@]1(NC(=O)[C@@H]1C[C@@H](OC(=O)N2Cc3cccc(F)c3C2)CN1C(=O)[C@@H](OC(=O)NC(C)(C)C)C(C)(C)C)C(=O)NS(=O)(=O)C1CC1 = ?
Reply text: > 100 µM
